The reported measurements were obtained from paper PMC3531455.

molecular target: PTH1 receptor (PTH1R) (Homo sapiens, UniProt Q03431); construct: PTH1R in membrane fractions of transfected HEK293 cells; assay: competitive fluorescence anisotropy displacement of PTH([…])TMR; supported by PTH-CC FRET conformational sensor; type: binding
Sequence (Q03431 27-593): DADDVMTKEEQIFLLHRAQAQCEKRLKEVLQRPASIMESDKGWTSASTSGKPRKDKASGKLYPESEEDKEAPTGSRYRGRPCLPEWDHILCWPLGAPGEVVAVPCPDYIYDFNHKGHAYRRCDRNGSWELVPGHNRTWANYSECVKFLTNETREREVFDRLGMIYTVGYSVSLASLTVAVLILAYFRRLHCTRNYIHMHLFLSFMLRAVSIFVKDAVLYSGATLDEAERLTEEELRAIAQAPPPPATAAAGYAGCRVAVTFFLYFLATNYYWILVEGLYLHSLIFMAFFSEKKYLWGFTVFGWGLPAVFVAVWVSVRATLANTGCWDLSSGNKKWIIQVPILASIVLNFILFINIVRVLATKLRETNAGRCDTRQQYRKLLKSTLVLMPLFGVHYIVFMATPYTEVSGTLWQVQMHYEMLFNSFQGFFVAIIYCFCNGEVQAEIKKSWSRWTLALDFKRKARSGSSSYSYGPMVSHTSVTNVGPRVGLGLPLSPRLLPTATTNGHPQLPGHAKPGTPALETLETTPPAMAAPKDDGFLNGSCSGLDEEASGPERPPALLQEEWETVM

| molecular.string | Ki, pM |
| --- | --- |
| CC/C=C\C/C=C\C/C=C\C/C=C\C/C=C\CCCC(=O)O | 690 |
